So I've got a bunch of compounds here, and I need their pIC50 values.
Target: Atypical chemokine receptor 3 (Homo sapiens)
Assay: Displacement of [125I]SDF-1alpha from CXCR7 (unknown origin) expressed in CHO cells after 1 hr by TopCount scintillation counting analysis
Format: cell-based
One number for each entry, as −log10 of the molar value.

[[record]]
compound = "CC1CCCCN1CCNC(=O)c1cc2c(s1)-c1ccc(Cl)cc1SC2 (stereo unspecified)"
measurement = 5.28

[[record]]
compound = "O=C(c1ccc(N2CCc3ccccc32)s1)N1CCC(N2CCCCC2)CC1"
measurement = 5.49

[[record]]
compound = "CCN1CCCC1CNC(=O)CN1C(=O)/C(=C/c2ccccc2F)Sc2ccccc21 (stereo unspecified)"
measurement = 5.21

[[record]]
compound = "COc1ccccc1C(CNC(=O)c1cc(-c2ccc(Br)cc2)on1)N1CCC(C)CC1 (stereo unspecified)"
measurement = 5.73

[[record]]
compound = "CCN1CCc2nc3sc(C(=O)N4CCc5ccccc5C4)c(N)c3cc2C1"
measurement = 5.00

[[record]]
compound = "Cc1ccc2c(c1)-c1onc(C(=O)NCCN3CCCCC3C)c1CO2 (stereo unspecified)"
measurement = 5.58

[[record]]
compound = "CN(C)c1ccc(/C=C2\\SC(N3CCN(CCO)CC3)=NC2=O)cc1"
measurement = 5.27

[[record]]
compound = "CCOc1cc(NC(=S)NCCCN(C)C)c(OCC)cc1NC(=O)c1ccc(C)cc1"
measurement = 5.01


Would you mind giving pIC50 for every compound in the list below?
1. Cc1ccc2[nH]c(=O)c3cc(C(=O)NCCN4CCCCCC4)sc3c2c1
2. CCCCN(CC)CCNC(=O)c1ccc(N2CCc3ccccc32)s1
3. CCC1CCCCN1CCCNC(=O)CSc1cc(=O)n(C)c2ccc(Cl)cc12 (stereo unspecified)
4. CN(Cc1ccccc1NC(=O)/C=C/c1cnn(-c2ccccc2)c1)C1CCCCC1

result:
[5.15, 5.41, 5.67, 5.23]

---

Target: Atypical chemokine receptor 3 (Homo sapiens, UniProt P25106)
Sequence (P25106 whole entry): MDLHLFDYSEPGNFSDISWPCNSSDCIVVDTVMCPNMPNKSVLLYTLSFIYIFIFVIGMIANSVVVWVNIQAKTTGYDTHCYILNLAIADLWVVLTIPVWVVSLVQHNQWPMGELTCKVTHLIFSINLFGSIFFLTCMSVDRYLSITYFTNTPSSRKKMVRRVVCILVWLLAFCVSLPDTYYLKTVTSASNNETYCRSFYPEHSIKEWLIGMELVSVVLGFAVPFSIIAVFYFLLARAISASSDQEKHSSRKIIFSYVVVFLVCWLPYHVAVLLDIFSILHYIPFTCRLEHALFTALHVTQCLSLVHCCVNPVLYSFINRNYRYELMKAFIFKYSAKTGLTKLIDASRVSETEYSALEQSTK
Assay: Binding affinity to CXCR7 (unknown origin)
measure: pIC50
Give bare numbers, as −log10 of the molar value.

[[record]]
chemical_structure = "CCc1ccc(NC(=O)CSc2nc3ccccc3c(=O)n2CCCC(=O)NCN2CCOCC2)cc1"
measurement = 5.32


Consider now this further compound.
query: Form field: reported pIC50 of O=C(c1cc2c(s1)-c1ccc(Cl)cc1SC2)N1CCC(N2CCCCC2)CC1
result: 5.20

---

Biological target: Atypical chemokine receptor 3 (Homo sapiens)
Assay: Displacement of [125I]SDF-1alpha from CXCR7 (unknown origin) expressed in CHO cells after 1 hr by TopCount scintillation counting analysis
Type: cell-based
measure: pIC50
One number for each entry, as −log10 of the molar value.

Example results:
[[record]]
compound = "Cc1ccc(C(=O)Nc2ncc(CN3CCC(c4ccccc4)C3)s2)cc1 (centres undefined)"
tgt = "Atypical chemokine receptor 3 (Homo sapiens)"
measurement = 5.36

[[record]]
compound = "CN(CCCNC(=O)c1cc2c(=O)n(C)c3ccccc3c2s1)Cc1ccccc1"
tgt = "Atypical chemokine receptor 3 (Homo sapiens)"
measurement = 5.66

[[record]]
compound = "CC1CCCCN1CC(O)COc1ccc2c3c(c(=O)oc2c1)CCC3 (centres undefined)"
tgt = "Atypical chemokine receptor 3 (Homo sapiens)"
measurement = 5.10


Lab note: each compound below needs its pIC50 filled in.
1. O=C(NCCCN(Cc1ccco1)C1CCCC1)c1cc2c(s1)-c1ccccc1SC2
2. CCC(C(=O)NCCCN(CC)Cc1ccccc1)n1nc(C)c2sc3ccccc3c2c1=O (centres undefined)
3. Cc1cc(OCC(=O)NC2CCN(Cc3ccccc3)CC2)c2c(C)cc(=O)oc2c1
4. CCN1CCCC1CNC(=O)c1ccc(-n2ccc3ccccc32)s1 (centres undefined)

result:
1. 4.94
2. 5.56
3. 5.83
4. 5.17

# return pIC50 for each item in the list
1. Cc1ccc2c(c1)-c1onc(C(=O)NCCCN3CC(C)CC(C)C3)c1CO2 (centres undefined)
2. CC1CCCN(CC(O)COc2ccc3c4c(c(=O)oc3c2)CCC4)C1 (centres undefined)

result:
1: 5.53; 2: 5.89
